- test target: Concanavalin-A (Canavalia ensiformis)
- method summary: ConA small-molecule binders, primary screen, artefact control for SMM control protein annotation, biochemical, small-molecule microarray, Alexa647 label, 635 nm (AID 1127)
- condition notes: ConA-A647 binding fluorescence, higher = more signal
Assign y to entries whose composite z-score meets or exceeds -0.2; assign n to the rest.

O=C1C=C[C@@H](O)[C@@H]2[C@@H]3C(=O)N(c4cccc(Oc5ccccc5)c4)C(=O)[C@@H]3CC[C@@H]12; y
CC(C)(C)N1C(=O)[C@H]2[C@H]3[C@H](O)[C@H](O)CC(=NOC[C@@H](O)COCc4ccco4)[C@@H]3CC[C@H]2C1=O; y
CCCNC(=O)OC[C@H]1O[C@H](CCON=C2C[C@@H](O)[C@@H](O)[C@@H]3[C@@H]4C(=O)N(CC)C(=O)[C@@H]4CC[C@@H]23)C=C[C@@H]1Oc1ccc(OC)cc1; y
CCOC(=O)CCN1C(=O)[C@H]2[C@@H]3C(=CC[C@H]2C1=O)C(=O)[C@H]1O[C@H]1[C@H]3O; n
CC(C)(C)N1C(=O)[C@H]2[C@@H]3C(=CC[C@H]2C1=O)C(=O)[C@H]1O[C@H]1[C@H]3O; n
COC(=O)[C@H](C)NC(=O)CCC1CC(OC(=O)NCCc2ccc(F)cc2)CC2(CCCC(COC(=O)NCC3CCCCC3)O2)O1 (some centres not stated); y
CO[C@@H](C1CCCCC1)[C@@H](C)[C@H](OCc1cccc(Br)c1)[C@@H](C)CO; y

Cited source: PubChem BioAssay
